Data provenance: patent US12435046B2

molecular target: HER2 S310F (Homo sapiens, UniProt P04626, S310F); experiment: BaF3 cell proliferation assay (CellTiterGlo), HER2 S310F; conditions: Table A; BaF3 cells, 3 days
Sequence (P04626 23-1255 S310F): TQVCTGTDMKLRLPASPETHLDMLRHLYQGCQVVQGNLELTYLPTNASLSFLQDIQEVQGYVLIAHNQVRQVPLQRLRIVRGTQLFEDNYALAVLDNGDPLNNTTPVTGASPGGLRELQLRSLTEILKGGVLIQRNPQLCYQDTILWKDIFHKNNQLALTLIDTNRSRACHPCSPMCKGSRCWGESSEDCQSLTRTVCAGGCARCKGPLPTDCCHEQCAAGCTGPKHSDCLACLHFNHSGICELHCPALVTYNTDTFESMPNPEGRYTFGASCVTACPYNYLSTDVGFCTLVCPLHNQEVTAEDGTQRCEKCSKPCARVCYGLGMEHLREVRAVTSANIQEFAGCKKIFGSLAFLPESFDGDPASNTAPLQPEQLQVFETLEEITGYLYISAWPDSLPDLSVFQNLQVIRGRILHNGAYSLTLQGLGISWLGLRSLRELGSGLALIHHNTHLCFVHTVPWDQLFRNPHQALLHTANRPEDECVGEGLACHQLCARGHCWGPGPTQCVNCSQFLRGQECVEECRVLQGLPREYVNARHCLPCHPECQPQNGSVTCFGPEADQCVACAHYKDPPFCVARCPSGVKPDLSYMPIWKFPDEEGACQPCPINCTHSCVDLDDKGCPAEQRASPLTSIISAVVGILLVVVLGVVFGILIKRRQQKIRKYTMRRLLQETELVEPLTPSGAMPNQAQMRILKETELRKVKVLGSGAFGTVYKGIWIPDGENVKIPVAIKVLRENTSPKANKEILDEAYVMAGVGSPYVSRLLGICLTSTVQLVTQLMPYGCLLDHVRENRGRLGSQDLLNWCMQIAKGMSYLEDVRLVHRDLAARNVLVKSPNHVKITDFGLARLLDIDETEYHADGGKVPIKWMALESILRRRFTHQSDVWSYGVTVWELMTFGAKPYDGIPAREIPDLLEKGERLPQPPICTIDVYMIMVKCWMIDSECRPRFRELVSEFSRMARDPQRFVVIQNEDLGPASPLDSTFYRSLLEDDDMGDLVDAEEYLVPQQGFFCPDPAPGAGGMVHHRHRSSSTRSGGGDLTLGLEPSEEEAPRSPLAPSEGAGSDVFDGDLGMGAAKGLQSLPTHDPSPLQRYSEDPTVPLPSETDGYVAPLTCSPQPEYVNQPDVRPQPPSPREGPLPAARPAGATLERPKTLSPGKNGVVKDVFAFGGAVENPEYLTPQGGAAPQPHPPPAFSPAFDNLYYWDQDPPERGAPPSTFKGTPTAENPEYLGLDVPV
observed_property: IC50

Worked examples follow.
molecule: C=CC(=O)Nc1cc2c(Nc3ccc(OCc4ccccn4)c(Cl)c3)ncnc2cc1C#C[C@@]1(C)CCN(C)C1
target: HER2 S310F (Homo sapiens, UniProt P04626, S310F)
measured_value: ≤ 50 nM
--
molecule: C=CC(=O)Nc1cc2c(Nc3cccc(Cl)c3F)ncnc2cc1C#CC1(C)CCN(CC(F)(F)F)C1 (centres unmarked)
target: HER2 S310F (Homo sapiens, UniProt P04626, S310F)
measured_value: > 500 nM
--
molecule: C=CC(=O)Nc1cc2c(Nc3ccc(O)c(Cl)c3)ncnc2cc1C#C[C@@H]1[C@H]2CN(C)C[C@@H]12
target: HER2 S310F (Homo sapiens, UniProt P04626, S310F)
measured_value: ≤ 50 nM
--
molecule: C=CC(=O)Nc1cc2c(Nc3cccc(Cl)c3F)ncnc2cc1C#CC1CCN(C)C1 (centres unmarked)
target: HER2 S310F (Homo sapiens, UniProt P04626, S310F)
measured_value: ≤ 50 nM
--
molecule: CNC(=O)Nc1cc2c(Nc3cccc(Cl)c3F)ncnc2cc1C#CC1(C)CCN(C)C1 (centres unmarked)
target: HER2 S310F (Homo sapiens, UniProt P04626, S310F)
measured_value: > 500 nM
--
molecule: C=CC(=O)Nc1cc2c(Nc3cccc(Cl)c3F)ncnc2cc1C#CC1(C(F)(F)F)CCN(C)C1 (centres unmarked)
target: HER2 S310F (Homo sapiens, UniProt P04626, S310F)
measured_value: 100 to 500 nM
--
molecule: C=CC(=O)Nc1cc2c(Nc3cccc(Cl)c3F)ncnc2cc1C#CC1(C)CCCN(C)C1 (centres unmarked)
target: HER2 S310F (Homo sapiens, UniProt P04626, S310F)
measured_value: 100 to 500 nM
--
molecule: C=CC(=O)Nc1cc2c(Nc3ccc(F)c(Cl)c3F)ncnc2cc1C#CC1(C)CCN(C)C1 (centres unmarked)
target: HER2 S310F (Homo sapiens, UniProt P04626, S310F)
measured_value: 50 to 100 nM
--
molecule: C=CC(=O)Nc1cc2c(Nc3cccc(Cl)c3F)ncnc2cc1C#C[C@@H]1[C@H]2CN(C)C[C@@H]12
target: HER2 S310F (Homo sapiens, UniProt P04626, S310F)
measured_value: ≤ 50 nM
--
molecule: C=CC(=O)Nc1cc2c(Nc3cccc(Cl)c3F)ncnc2cc1C#C[C@]12C[C@H]1CN(C)C2
target: HER2 S310F (Homo sapiens, UniProt P04626, S310F)
measured_value: 50 to 100 nM

As a next step, examine the molecule that follows.
Lab note: `C=CC(=O)Nc1cc2c(Nc3cccc(Cl)c3F)ncnc2cc1C#C[C@]12C[C@H]1CN(C1COC1)C2` gave IC50 of 100 to 500 nM

----------
biological target: EGFR V3 (Homo sapiens, UniProt P00533, DELINS30-297G); construct: expressed in transfected cells; host or cells: BaF3 (murine pro-B) cells, retroviral transduction with pMXs-IRES-Blasticidin; experiment: BaF3 cell proliferation assay (CellTiterGlo), EGFR V3; assay type: cell-based; conditions: Table A; BaF3 cells, 3 days
Sequence (P00533 with tags, fused parts or gaps DELINS30-297G): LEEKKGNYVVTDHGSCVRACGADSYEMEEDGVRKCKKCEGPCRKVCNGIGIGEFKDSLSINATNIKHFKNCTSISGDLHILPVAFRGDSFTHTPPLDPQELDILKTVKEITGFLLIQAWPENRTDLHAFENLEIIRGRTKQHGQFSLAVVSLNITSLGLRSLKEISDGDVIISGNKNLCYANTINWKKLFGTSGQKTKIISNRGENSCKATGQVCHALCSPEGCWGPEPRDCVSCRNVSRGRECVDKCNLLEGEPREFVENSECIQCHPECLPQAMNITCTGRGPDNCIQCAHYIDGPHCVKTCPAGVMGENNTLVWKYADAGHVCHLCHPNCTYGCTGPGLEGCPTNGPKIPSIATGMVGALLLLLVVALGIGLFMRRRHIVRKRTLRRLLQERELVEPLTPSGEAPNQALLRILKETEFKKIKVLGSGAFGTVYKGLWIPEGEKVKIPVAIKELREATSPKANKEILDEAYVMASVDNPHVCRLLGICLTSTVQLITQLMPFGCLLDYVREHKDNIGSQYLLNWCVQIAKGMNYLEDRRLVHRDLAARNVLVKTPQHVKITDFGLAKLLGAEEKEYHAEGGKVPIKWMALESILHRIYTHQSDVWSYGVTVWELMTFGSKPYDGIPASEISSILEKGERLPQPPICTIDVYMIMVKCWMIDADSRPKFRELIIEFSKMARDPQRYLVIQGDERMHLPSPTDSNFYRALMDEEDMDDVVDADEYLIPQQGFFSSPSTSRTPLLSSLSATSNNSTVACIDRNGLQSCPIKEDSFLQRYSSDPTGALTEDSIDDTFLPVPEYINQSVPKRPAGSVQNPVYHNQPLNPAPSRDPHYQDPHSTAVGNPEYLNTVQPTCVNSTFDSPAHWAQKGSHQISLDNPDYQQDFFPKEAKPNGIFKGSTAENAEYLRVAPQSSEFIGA
pIC50: −log10 of the molar value.
observed_property: pIC50

Worked examples follow.
molecule: C=CC(=O)Nc1cc2c(Nc3cccc(Cl)c3F)ncnc2cc1C#CC1(C)CCN(C2COC2)C1 (stereo not drawn)
measured_value: ≥ 7.30
//
molecule: C=CC(=O)Nc1cc2c(Nc3cccc(Cl)c3F)ncnc2cc1C#C[C@]1(OC)CCN(C)C1
measured_value: ≥ 7.30
//
molecule: C=CC(=O)Nc1cc2c(Nc3cc(Cl)ccc3F)ncnc2cc1C#CC1(C)COC1
measured_value: 6.30 to 7.00
//
molecule: C=CC(=O)Nc1cc2c(Nc3cccc(Cl)c3F)ncnc2cc1C#C[C@@]1(C)CCN(C2COC2)C1
measured_value: ≥ 7.30
//
molecule: C=CC(=O)Nc1cc2c(Nc3cc(Cl)ccc3F)ncnc2cc1C#C[C@@H]1[C@H]2CN(C)C[C@@H]12
measured_value: ≥ 7.30
//
molecule: C=CC(=O)Nc1cc2c(Nc3cccc(Cl)c3F)ncnc2cc1C#CC1(C)CN(C)C2(COC2)C1 (stereo not drawn)
measured_value: 6.30 to 7.00
//
molecule: C=CC(=O)Nc1cc2c(Nc3ccc(Cl)c(Cl)c3F)ncnc2cc1C#C[C@@]12C[C@@H]1CN(C)C2
measured_value: ≥ 7.30
//
molecule: C=CC(=O)Nc1cc2c(Nc3cccc(Cl)c3F)ncnc2cc1C#C[C@]1(C)CCCN(C)C1
measured_value: 6.30 to 7.00
//
molecule: C=CC(=O)Nc1cc2c(Nc3ccc(OCc4cccc(F)c4)c(Cl)c3)ncnc2cc1C#CC1(C)CCOC1 (stereo not drawn)
measured_value: 6.30 to 7.00
//
molecule: CN1C[C@H]2C[C@@]2(C#Cc2cc3ncnc(Nc4cccc(Cl)c4F)c3cc2NC(=O)C(F)Cl)C1 (stereo partly drawn)
measured_value: < 6.30

Lab note: C=CC(=O)Nc1cc2c(Nc3cccc(Cl)c3F)ncnc2cc1C#CC1(C)CCN(C)C1 (stereo not drawn) gave pIC50 of ≥ 7.30

Lab note: `C=CC(=O)Nc1cc2c(Nc3ccc(OCc4ccccn4)c(Cl)c3)ncnc2cc1C#CC12CCC(CC1)N2C` gave pIC50 of ≥ 7.30

Lab note: C=CC(=O)Nc1cc2c(Nc3ccc(Oc4ccn5ncnc5c4)c(C)c3)ncnc2cc1C#CC12CC1CN(C)C2 (stereo not drawn) gave pIC50 of ≥ 7.30

Lab note: `CC(C)/C=C/C(=O)Nc1cc2c(Nc3cccc(Cl)c3F)ncnc2cc1C#C[C@@]1(C)CCN(C)C1` gave pIC50 of < 6.30

Lab note: `C=CC(=O)Nc1cc2c(Nc3ccc(Cl)c(Cl)c3F)ncnc2cc1C#C[C@]12C[C@H]1CN(C)C2` gave pIC50 of ≥ 7.30
